B1: INTS3 (parent)
chain: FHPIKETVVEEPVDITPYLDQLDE

# Variants of: B1
# Assay comment: protein stability index of a GFP-peptide fusion (GPS, HEK-293T) (PSI 1-6); higher = more stable;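 also: lentivirally expressed fusions sorted by FACS into six bins by GFP to DsRed ratio, PSI derived from sequencing read proportions per bin multiplied by bin number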
# Measurement parameters: c terminus: a fixed tail appended
Measured metric: protein stability index
No unit in the answer, only the number.

Here's what some known entries look like.
| Variant description | Value reported |
| --- | --- |
| P17L | 2.92 |
| I15S | 2.92 |
| D20N | 2.94 |
| K5E | 5.06 |

Task item: Query (variant): `I4A` ; field requested: protein stability index
Reply: 2.98

Task item: Field request: protein stability index | item: `Y18V`
Reply: 3.87

Task item: Given `Y18Q` , state its recorded protein stability index.
Reply: 3.95

Task item: For `E11D` , what is its reported protein stability index?
Reply: 3.15

Task item: Sample `T7P` — what was its protein stability index?
Reply: 3.31
